The entries below come with measured IC50 values attached.
Target: PI3Kγ (p120γ) (Homo sapiens, UniProt P48736)
Construct: purchased Promega V1761
Sequence (P48736 whole entry): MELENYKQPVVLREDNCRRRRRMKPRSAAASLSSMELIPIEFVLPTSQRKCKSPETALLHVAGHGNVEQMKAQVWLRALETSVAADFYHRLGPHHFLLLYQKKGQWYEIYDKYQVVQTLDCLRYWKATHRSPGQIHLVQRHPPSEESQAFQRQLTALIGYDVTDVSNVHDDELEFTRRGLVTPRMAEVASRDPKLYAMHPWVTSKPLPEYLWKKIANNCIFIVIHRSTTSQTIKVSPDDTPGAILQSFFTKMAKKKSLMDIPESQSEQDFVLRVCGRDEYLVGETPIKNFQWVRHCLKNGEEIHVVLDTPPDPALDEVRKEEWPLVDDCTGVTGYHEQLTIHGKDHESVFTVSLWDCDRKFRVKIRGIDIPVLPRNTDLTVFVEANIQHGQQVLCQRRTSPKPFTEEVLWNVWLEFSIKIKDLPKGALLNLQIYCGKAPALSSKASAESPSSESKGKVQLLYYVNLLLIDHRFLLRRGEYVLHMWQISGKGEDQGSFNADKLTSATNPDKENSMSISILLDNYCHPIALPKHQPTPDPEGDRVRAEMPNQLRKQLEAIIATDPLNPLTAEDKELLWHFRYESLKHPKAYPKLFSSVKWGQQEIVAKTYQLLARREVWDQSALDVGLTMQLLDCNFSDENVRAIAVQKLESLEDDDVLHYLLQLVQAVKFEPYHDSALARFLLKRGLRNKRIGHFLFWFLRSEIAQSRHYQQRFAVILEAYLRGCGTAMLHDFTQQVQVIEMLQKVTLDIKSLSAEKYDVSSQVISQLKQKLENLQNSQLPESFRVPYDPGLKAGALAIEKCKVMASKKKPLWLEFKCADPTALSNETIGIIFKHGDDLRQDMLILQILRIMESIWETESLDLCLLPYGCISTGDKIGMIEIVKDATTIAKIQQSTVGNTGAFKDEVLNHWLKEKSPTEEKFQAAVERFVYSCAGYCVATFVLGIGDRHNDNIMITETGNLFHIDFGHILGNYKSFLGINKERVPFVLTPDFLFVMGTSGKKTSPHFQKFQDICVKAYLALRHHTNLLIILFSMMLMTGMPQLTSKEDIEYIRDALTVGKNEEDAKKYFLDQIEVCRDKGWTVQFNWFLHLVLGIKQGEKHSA
Assay: Inhibition of PI3K kinase activity (ADP Glo), PI3Kγ
Conditions: Table 2, p120γ, read-out: biochemical potency (PI3Kγ IC50)

INSERT INTO assay_data (molecule, test_value) VALUES
  ('Cc1cc(-c2ccn3nc(N)c(C(=O)N[C@@H]4CCNC4)c3n2)cc2c1C(=O)N([C@@H](C)C1CC1)C2', '< 100 nM'),
  ('Cc1cc(-c2ccn3nc(N)c(C(=O)N[C@H](C)c4ccncc4)c3n2)cc2c1C(=O)N([C@@H](C)C1CC1)C2', '< 100 nM'),
  ('Cc1cc(-c2ccn3nc(N)c(C(=O)NCc4ccn(C)n4)c3n2)cc2c1C(=O)N([C@@H](C)C1CC1)C2', '< 100 nM'),
  ('CC[C@@H](C)N1Cc2cc(-c3ccn4nc(N)c(C(=O)NC5CC5)c4n3)cc(C)c2C1=O', '< 100 nM'),
  ('Cc1cc(-c2ccn3nc(N)c(C(=O)NC4CC4)c3n2)cc2c1C(=O)N(C(C)(C)CO)C2', '< 100 nM'),
  ('Cc1cc(-c2ccn3nc(N)c(C(=O)N[C@@H](CO)c4ccccc4)c3n2)cc2c1C(=O)N([C@@H](C)C1CC1)C2', '< 100 nM'),
  ('Cc1cc(-c2ccn3nc(N)c(C(=O)NC4(c5ccccc5)CC4)c3n2)cc2c1C(=O)N([C@@H](C)C1CC1)C2', '< 100 nM'),
  ('Cc1cc(-c2ccn3nc(N)c(C(=O)N[C@H]4CC[C@@H](N)CC4)c3n2)cc2c1C(=O)N([C@@H](C)C1CC1)C2', '< 100 nM');

Here is the next item to consider.
Query: Can you look up the measured IC50 of Cc1cc(-c2ccn3nc(N)c(C(=O)N[C@H]4CCNC4=O)c3n2)cc2c1C(=O)N([C@@H](C)C1CC1)C2 for me?
Response: < 100 nM

====

Recorded IC50 values for a group of compounds are listed next.
Target: PI3Kγ (p120γ) (Homo sapiens)
Construct: purchased Promega V1761
Assay: Inhibition of PI3K kinase activity (ADP Glo), PI3Kγ
Conditions: Table 3, p120γ, read-out: biochemical potency (PI3Kγ IC50)

INSERT INTO results (compound, parameter, test_value) VALUES
  ('C[C@@H](O)CCNC(=O)c1c(N)nn2ccc(-c3cc4c(c(C(F)(F)F)c3)C(=O)N([C@@H](C)C3CC3)C4)nc12 [Example 341]', 'IC50', '< 100 nM');

Query: Record request: IC50 value, item Nc1nn2ccc(-c3cc4c(c(C(F)(F)F)c3)C(=O)N([C@@H](CO)C3CC3)C4)nc2c1C(=O)NC1CC1 [Example 340]
Response: < 100 nM

Query: IC50 for C[C@@H](C1CC1)N1Cc2cc(-c3ccn4nc(N)c(C(=O)N[C@@H]5CCC[C@H](N(C)C)C5)c4n3)cc(C(F)(F)F)c2C1=O [Example 362] ?
Response: < 100 nM

====

Molecular target: PI3Kγ (Homo sapiens, UniProt P48736)
Construct: host or cells: THP-1
Experiment: PI3Kγ cellular assay in THP-1 cells (AKT pS473 AlphaLISA)
Assay type: cell-based
Conditions: Table 1, rhMCP-1 stimulated AKT pS473, read-out: cellular potency (PI3Kγ IC50)
Protocol: Twenty microliters of serum starved THP-1 cells were added to the compound plate in serum free DMEM at a density of 9×10^6 cells per ml. […] PI3Kγ activity was evaluated as a correlate of endogenous AKT phosphorylation levels. Percentage maximum activity in each test well was calculated based on DMSO (100% activity) and positive control treated cell wells (0% activity). The potencies (IC50's) of test compounds were determined using a standard 4-parameter fit non-linear regression fit.
pIC50: −log10 of the molar value.
Parameter: pIC50

INSERT INTO results (molecule, parameter, test_value) VALUES
  ('C[C@H](N1Cc2cc(-c3ccn4nc(N)c(C(=O)NC5COC5)c4n3)cc(NS(C)(=O)=O)c2C1=O)C(F)(F)F [Example 116]', 'pIC50', '> 7.00'),
  ('C[C@@H](C1CC1)N1Cc2cc(-c3ccn4nc(N)c(C(=O)N[C@@H]5CCC[C@H](N(C)C)C5)c4n3)cc(OC(F)(F)F)c2C1=O [Example 34]', 'pIC50', '> 7.00'),
  ('CCS(=O)(=O)c1cc(-c2ccn3nc(N)c(C(=O)NC4CC4)c3n2)cc2c1C(=O)N([C@@H](C)C1CC1)C2 [Example 133]', 'pIC50', '> 7.00'),
  ('C[C@H](CCO)NC(=O)c1c(N)nn2ccc(-c3cc4c(c(C(F)(F)F)c3)C(=O)N([C@@H](C)C3CC3)C4)nc12 [Example 57]', 'pIC50', '> 7.00'),
  ('C[C@@H](C1CC1)N1Cc2cc(-c3ccn4nc(N)c(C(=O)N[C@H]5CC[C@H](C(C)(C)O)CC5)c4n3)cc(C(F)(F)F)c2C1=O [Example 61]', 'pIC50', '> 7.00');

Query: Please provide the recorded pIC50 for Cc1cc(-c2ccn3nc(N)c(C(=O)N[C@H]4CCC[C@@H](O)C4)c3n2)cc2c1C(=O)N([C@@H](C)C1CC1)C2 [Example 9] , tested on PI3Kγ (Homo sapiens, UniProt P48736).
Response: > 7.00

Query: Record lookup: for PI3Kγ (Homo sapiens, UniProt P48736), what pIC50 belongs to CC[C@H](N1Cc2cc(-c3ccn4nc(N)c(C(=O)NC5COC5)c4n3)cc(NS(C)(=O)=O)c2C1=O)C(F)(F)F [Example 123] ?
Response: > 7.00

Query: Notebook: pull reported pIC50 for PI3Kγ (Homo sapiens, UniProt P48736), entry Cc1cc(NC(=O)c2c(N)nn3ccc(-c4cc5c(c(NS(C)(=O)=O)c4)C(=O)N([C@@H](C)C4CC4)C5)nc23)ccn1 [Example 101]
Response: > 7.00

Query: Hello, I am looking for reported pIC50 with PI3Kγ (Homo sapiens, UniProt P48736) for C[C@@H](C1CC1)N1Cc2cc(-c3ccn4nc(N)c(C(=O)NCCO)c4n3)cc(C(F)(F)F)c2C1=O [Example 51] . Could you help?
Response: > 7.00

Query: Query the reported pIC50 for PI3Kγ (Homo sapiens, UniProt P48736); item: C[C@@H](NC(=O)c1c(N)nn2ccc(-c3cc4c(c(NS(C)(=O)=O)c3)C(=O)N([C@@H](C)C3CC3)C4)nc12)c1cnn(C)c1 [Example 98]
Response: > 7.00

Query: Recorded pIC50 for C[C@@H](C1CC1)N1Cc2cc(-c3ccn4nc(N)c(C(=O)Nc5ccncc5)c4n3)cc(NS(C)(=O)=O)c2C1=O [Example 100] with PI3Kγ (Homo sapiens, UniProt P48736), please?
Response: > 7.00

Query: What pIC50 appears in the records for this molecule with PI3Kγ (Homo sapiens, UniProt P48736)? C[C@@H](C1CC1)N1Cc2cc(-c3ccn4nc(N)c(C(=O)N[C@H]5C[C@H](O)C5)c4n3)cc(C(F)(F)F)c2C1=O [Example 65]
Response: > 7.00

Query: Kindly state the measured pIC50 obtained for C[C@@H](C1CC1)N1Cc2cc(-c3ccn4nc(N)c(C(=O)NC5CC5)c4n3)cc(OC(F)F)c2C1=O [Example 158] with PI3Kγ (Homo sapiens, UniProt P48736).
Response: > 7.00
